- target entity: T1, human LRRC33-proTGFβ1 complex (human, UniProt P01137 30-390; Q86YC3 19-650)
- T1 construct: also called hLRRC33-proTGFβ1; hLRRC33
- T1 sequence (P01137 30-390 limits assumed, chain 1 of 2): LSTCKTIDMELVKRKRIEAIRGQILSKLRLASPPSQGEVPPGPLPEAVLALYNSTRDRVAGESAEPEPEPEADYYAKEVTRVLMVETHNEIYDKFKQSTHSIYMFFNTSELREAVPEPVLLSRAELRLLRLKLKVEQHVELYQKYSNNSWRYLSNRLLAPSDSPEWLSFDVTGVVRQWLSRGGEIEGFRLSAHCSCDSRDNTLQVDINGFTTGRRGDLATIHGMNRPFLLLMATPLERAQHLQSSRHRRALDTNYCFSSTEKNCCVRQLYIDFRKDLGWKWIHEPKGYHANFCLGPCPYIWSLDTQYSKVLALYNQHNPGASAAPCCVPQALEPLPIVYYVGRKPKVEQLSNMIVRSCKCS
- T1 sequence (Q86YC3 other isoform, or with tags, fused parts or gaps limits assumed, chain 2 of 2): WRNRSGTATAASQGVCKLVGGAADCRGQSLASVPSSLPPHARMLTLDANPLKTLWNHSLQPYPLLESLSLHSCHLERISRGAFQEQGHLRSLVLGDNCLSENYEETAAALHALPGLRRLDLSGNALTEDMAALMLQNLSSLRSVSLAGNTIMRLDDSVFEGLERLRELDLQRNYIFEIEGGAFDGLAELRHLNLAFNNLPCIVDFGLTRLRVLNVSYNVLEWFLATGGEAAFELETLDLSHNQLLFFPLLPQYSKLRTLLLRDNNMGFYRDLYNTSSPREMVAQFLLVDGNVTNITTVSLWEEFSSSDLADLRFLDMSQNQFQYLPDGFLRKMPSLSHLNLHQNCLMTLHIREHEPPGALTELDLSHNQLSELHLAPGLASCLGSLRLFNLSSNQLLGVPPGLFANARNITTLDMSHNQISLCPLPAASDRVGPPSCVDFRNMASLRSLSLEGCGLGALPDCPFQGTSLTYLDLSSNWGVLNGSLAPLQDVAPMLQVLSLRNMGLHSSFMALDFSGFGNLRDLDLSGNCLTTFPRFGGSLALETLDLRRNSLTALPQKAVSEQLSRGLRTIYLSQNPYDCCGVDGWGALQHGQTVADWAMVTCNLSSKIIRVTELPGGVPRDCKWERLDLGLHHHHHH
- assay comment: MSD-SET, hIgG4
quantity name: Kd (nM)
Enter your answer as a number in nM; do not include the unit.

Kd for Ab19 (antibody, IgG4, V domains shown) VH: QVQLVESGGGVVQPGRSLRLSCAASGFTFSSFAMTWVRQAPGKGLEWVSAISGSGAATYFADSVKGRFTISRDNSKNTLYLQMNSLRAEDTAVYYCARVSSGHWDFDEWGQGTLVTVSS VL: DIQLTQSPSSLSASVGDRVTITCRASQSISSYLNWYQQKPGKAPKLLIYAASNLQSGVPSRFSGSGSGTDFTLTISSLQPEDFATYYCQQTYTVPLTFGGGTKVEIK is 5.7

Kd for Ab32 (antibody, IgG4, V domains shown) VH: EVQLVESGGGLVQPGGSLRLSCAASGFTFSSFSMNWVRQAPGKGLEWVSYISPSADTIYYADSVKGRFTISRDNAKNTLYLQMNSLRAEDTAVYYCARGVWDMGDMLDPWGQGTLVTVSS VL: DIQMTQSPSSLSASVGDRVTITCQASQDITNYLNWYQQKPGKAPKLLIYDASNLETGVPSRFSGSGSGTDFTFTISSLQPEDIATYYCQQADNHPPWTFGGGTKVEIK is 0.087

Kd for Ab26 (antibody, IgG4, V domains shown) VH: EVQLVESGGGLVQPGGSLRLSCAASGFTFSSFSMDWVRQAPGKGLEWVSYISPDASTIYYADSVKGRFTISRDNAKNTLYLQMNSLRAEDTAVYYCARGVLDYGDMLDPWGQGTLVTVSS VL: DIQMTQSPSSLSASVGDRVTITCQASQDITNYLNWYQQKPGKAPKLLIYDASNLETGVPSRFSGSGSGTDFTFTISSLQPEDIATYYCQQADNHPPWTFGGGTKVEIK is 0.13

Kd for Ab20 (antibody, IgG4, V domains shown) VH: EVQLLESGGGLVQPGGSLRLSCAASGFTFSAYAMTWVRQAPGKGLEWVSAISGSGGVTYYADSVKGRFTISRDNSKNTLYLQMNSLRAEDTAVYYCARVSSGHWDYDYWGQGTLVTVSS VL: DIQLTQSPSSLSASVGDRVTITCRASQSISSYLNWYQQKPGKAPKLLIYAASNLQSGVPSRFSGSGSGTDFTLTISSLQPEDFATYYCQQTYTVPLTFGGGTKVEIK is 1.6

Kd for Ab4 (antibody, IgG4, V domains shown, parent of Ab6) VH: EVQLVESGGGLVQPGGSLRLSCAASGFTFSSYSMNWVRQAPGKGLEWVSYISSSSSTIYYADSVKGRFTISRDNAKNSLYLQMNSLRAEDTAVYYCARGVLDYGDMLDPWGQGTLVTVSS VL: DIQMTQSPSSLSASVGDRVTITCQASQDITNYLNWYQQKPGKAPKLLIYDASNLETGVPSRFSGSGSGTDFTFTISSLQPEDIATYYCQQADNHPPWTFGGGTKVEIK is 2.1
